Measured values drawn from PubChem BioAssay (EPA / NIEHS) for this set.

Biological target: Myc proto-oncogene protein (Homo sapiens)
Assay: ATG_Myc_CIS: Attagene CIS-FACTORIAL HepG2 Assay for human Myelocytomatosis (Myc) Proto-Oncogene Transcription Factor (AID 2282990)
Conditions: HepG2, Attagene cis-reporter transcription factor activity; actives raise or lower the signal
Activity calls are given as the source filed them. Rule for the calls: active = hit-call score of the fitted dose curve at least 0.9, where 1 is the maximum; inactive = score below 0.9.
Please reply with one of these outcomes: active, inactive

Answered cases to consult:
| COMPOUND | CLASS ASSIGNMENT |
| --- | --- |
| O=P(O)(O)CCC(F)(F)C(F)(F)C(F)(F)C(F)(F)C(F)(F)C(F)(F)C(F)(F)C(F)(F)F | inactive |
| CC(C)(C)C1CCCCC1O (stereo not drawn) | inactive |
| Cc1cc(Cc2cc(C)cc(C(C)(C)C)c2O)c(O)c(C(C)(C)C)c1 | active |
| O=C1OC(=O)c2cc(-c3ccc4c(c3)C(=O)OC4=O)ccc21 | inactive |
| OCC(CO)(CBr)CBr | inactive |

// next entry
Ask: I'd appreciate the recorded outcome for `O=C(O)CN(CCCN(CC(=O)O)CC(=O)O)CC(=O)O` from this test.
Reply: inactive
